The measured values listed here are drawn from the supplement of paper PMC11451515.

tested on: NOMO1; test: cell viability relative to DMSO control; higher = less cytotoxic; settings: HPLM + 10% dialyzed FBS; 48 h; 0.569 µM
cell viability values for the compounds below.

Compound | cell viability / %
Cn1c(=O)c2c(ncn2CC(O)CO)n(C)c1=O (stereo unspecified) | 103
COc1ccc2cc(-c3[nH]c(-c4ccc([S+](C)[O-])cc4)nc3-c3ccncc3)ccc2c1 (stereo unspecified) | 148
O=C(NC1CC1)c1cccc(-c2ccc3c(NC(=O)C4CC4)n[nH]c3c2)c1 | 119
CN1C(=O)COc2c(C(=O)NC3CN4CCC3CC4)cc(Cl)cc21 (stereo unspecified) | 119
CN[C@@H](C)C(=O)N[C@H]1CCCC[C@H]2CC[C@@H](C(=O)N[C@@H](c3ccccc3)c3cn(CCCCc4ccc(CCCCn5cc([C@@H](NC(=O)[C@@H]6CC[C@@H]7CCCC[C@H](NC(=O)[C@H](C)NC)C(=O)N76)c6ccccc6)nn5)cc4)nn3)N2C1=O | 50.6
N=C(N)c1ccc(OCCCCCOc2ccc(C(=N)N)cc2)cc1 | 104

----------
test system: NOMO1; test: cell viability relative to DMSO control; higher = less cytotoxic; conditions: RPMI 5 mM glucose + 10% FBS; 48 h; 46.1 µM
Could you please mark Yes for values of cell viability below 90% and No for values at or above it?

Compound | Measured on | Class name
CN1[C@@H]2CC(O)C[C@H]1[C@@H]1O[C@@H]12 (stereo not given in full) | NOMO1 | Yes
CNC(=O)c1c(F)cccc1Nc1nc(Nc2cc3c(cc2OC)CCN3C(=O)CN(C)C)nc2[nH]ccc12 | NOMO1 | Yes
NC/1=N/C(=O)N(/C=C1)[C@H]2CC[C@@H](CO)O2 | NOMO1 | Yes
COc1ccc(Cn2ccc3ccc(C(=O)NO)cc32)cc1 | NOMO1 | No
COc1ccc2cc(-c3[nH]c(-c4ccc([S+](C)[O-])cc4)nc3-c3ccncc3)ccc2c1 (stereo not given) | NOMO1 | No
CN[C@@H](C)C(=O)N[C@H]1CCCC[C@H]2CC[C@@H](C(=O)N[C@@H](c3ccccc3)c3cn(CCCCc4ccc(CCCCn5cc([C@@H](NC(=O)[C@@H]6CC[C@@H]7CCCC[C@H](NC(=O)[C@H](C)NC)C(=O)N76)c6ccccc6)nn5)cc4)nn3)N2C1=O | NOMO1 | Yes
CCOc1ccccc1OCCNC(C)Cc1ccc(OC)c([S+](N)(=O)[O-])c1 (stereo not given) | NOMO1 | No
Cc1cnc(Nc2ccc(OCCN3CCCC3)cc2)nc1Nc1cccc([S+](=O)([O-])NC(C)(C)C)c1 | NOMO1 | No
CC(C)(O)CNc1nc(Nc2ccnc(C(F)(F)F)c2)nc(-c2cccc(C(F)(F)F)n2)n1 | NOMO1 | Yes
O=P(O)(O)C(O)(Cc1cccnc1)P(=O)(O)[O][Na] (stereo not given) | NOMO1 | Yes
CCOC(=O)c1ccc(C#Cc2ccc3c(c2)C(C)(C)CCS3)nc1 | NOMO1 | No
CN1C(=O)COc2c(C(=O)NC3CN4CCC3CC4)cc(Cl)cc21 (stereo not given) | NOMO1 | Yes
CC(C)c1ccc2oc3nc(N)c(C(=O)O)cc3c(=O)c2c1 | NOMO1 | No
C=C1C[C@@]2(O)O[C@@]3(C[C@H]2C(C)C)[C@@H](C)CC[C@@H]13 | NOMO1 | No
N/C(=N\C(=O)c1nc(Cl)c(N)nc1N)NCc1ccccc1 | NOMO1 | Yes
CCCCOc1ccc(C(=O)Nc2ccc(F)cc2F)cc1 | NOMO1 | Yes
CCC(CC)[C@H](NC(C)=O)[C@@H]1[C@H](O)[C@@H](C(=O)O)C[C@H]1NC(=N)N | NOMO1 | Yes
CC(C)[C@@H](N(CCCN)C(=O)C1=CC=C(C)C=C1)C/2=C(\CC3=CC=CC=C3)C(=O)C4=C(O2)C=C(Cl)C=C4 | NOMO1 | Yes
CCOP(=O)(OCC)C(C)NC(=O)N(CCCl)N=O (stereo not given) | NOMO1 | No

----------
system: P12-Ichikawa; assay: cell viability relative to DMSO control; higher = less cytotoxic; conditions: RPMI 5 mM glucose + 10% FBS; 48 h; 0.569 µM
Quantity name: cell viability (%)

Compound | Measured on | Measured
CCC(=O)O[C@@]1([C@H](C)C[C@H]2[C@@H]3C[C@H](F)\C4=C\C(=O)\C=C/[C@]4(C)[C@@]3(F)[C@@H](O)C[C@]12C)C(=O)SCF | P12-Ichikawa | 68.2
CN[C@@H](C)C(=O)N[C@H]1CCCC[C@H]2CC[C@@H](C(=O)N[C@@H](c3ccccc3)c3cn(CCCCc4ccc(CCCCn5cc([C@@H](NC(=O)[C@@H]6CC[C@@H]7CCCC[C@H](NC(=O)[C@H](C)NC)C(=O)N76)c6ccccc6)nn5)cc4)nn3)N2C1=O | P12-Ichikawa | 115
CCC(CC)[C@H](NC(C)=O)[C@@H]1[C@H](O)[C@@H](C(=O)O)C[C@H]1NC(=N)N | P12-Ichikawa | 84.8
COc1ccc2cc(-c3[nH]c(-c4ccc([S+](C)[O-])cc4)nc3-c3ccncc3)ccc2c1 (stereo not given) | P12-Ichikawa | 128
CC(Oc1ccc(O)cc1)(P(=O)(O)O)P(=O)(O)O | P12-Ichikawa | 82.2
CCCn1c(=O)c2[nH]c(C34CC5CC3C[C@@H](C5)C4)nc2n(CCC)c1=O | P12-Ichikawa | 64.5
c1ccc(-c2nn3c(c2-c2ccnc4cc(OCCN5CCOCC5)ccc24)CCC3)nc1 | P12-Ichikawa | 89.8
CCOc1ccccc1OCCNC(C)Cc1ccc(OC)c([S+](N)(=O)[O-])c1 (stereo not given) | P12-Ichikawa | 114
CN(C)c1nc(N(C)C)nc(N(C)C)n1 | P12-Ichikawa | 98.8
O=C1c2cccc(O)c2C(=O)c2c(O)cc(CO)cc21 | P12-Ichikawa | 88.2
CC(C)[C@H](CO)Nc1nc(Nc2ccc(C(=O)O)c(Cl)c2)c2ncn(C(C)C)c2n1 | P12-Ichikawa | 95.7
CC1OC(OC/2=C(/OC3=C(C(=CC(=C3)O)O)C2=O)C4=CC=C(O)C=C4)C(O)C(OC(C)=O)C1OC(C)=O (stereo not given) | P12-Ichikawa | 103
C[C@H]1[C@@H](CC(C[C@H]2O[C@@H]3O[C@]4(C)CC[C@H]5[C@H](C)CC[C@@H]([C@H]2C)[C@@]35OO4)C[S+](=O)([O-])c2ccc(COC(=O)N(C)C)cc2)O[C@@H]2O[C@]3(C)CC[C@H]4[C@H](C)CC[C@@H]1[C@@]24OO3 | P12-Ichikawa | 81.7
Cn1cc(-c2ccncc2)c(-c2ccc(OCc3ccc4ccccc4n3)cc2)n1 | P12-Ichikawa | 120
CC(=O)SCC(Cc1ccccc1)C(=O)NCC(=O)OCc1ccccc1 (stereo not given) | P12-Ichikawa | 101
CC1=C(C)C2=C(S1)[N]3C(=NN=C3[C@H](CC(=O)OC(C)(C)C)/N=C2/C4=CC=C(Cl)C=C4)C | P12-Ichikawa | 43
COc1cc2nc(-c3ccc(N4CCN(C)CC4)cc3)nc(NCCN3CCOCC3)c2cc1OC | P12-Ichikawa | 104
CCC1=C(C)CN(C(=O)NCCc2ccc(S(=O)(=O)NC(=O)N[C@H]3CC[C@H](C)CC3)cc2)C1=O | P12-Ichikawa | 107
Cc1ccccc1C(C(=O)NC1CCCCC1)N(C(=O)CNc1ccc(C#N)cc1)c1cccc(F)c1 (stereo not given) | P12-Ichikawa | 102
CN1[C@@H]2CC(O)C[C@H]1[C@@H]1O[C@@H]12 (stereo not given in full) | P12-Ichikawa | 119
N#Cc1c(C2CCNCC2)cc(-c2c(O)cccc2OCC2CC2)nc1N | P12-Ichikawa | 108
CCOc1cc2c(c(F)c1OCC)C(=N)N(CC(=O)c1cc(N3CCOCC3)c(OC)c(C(C)(C)C)c1)C2 | P12-Ichikawa | 128
Cc1c(OCC(F)(F)F)ccnc1C[S+]([O-])c1nc2ccccc2[nH]1 (stereo not given) | P12-Ichikawa | 108
CCc1cc(/C(C)=N/OCc2ccc(C3CCCCC3)c(C(F)(F)F)c2)ccc1CN1CC(C(=O)O)C1 | P12-Ichikawa | 108
CC1=CC2=C(O1)C(=C3OC(=O)\C=C(C)/C3=C2)C | P12-Ichikawa | 118

----------
cell viability values for the molecules below.
system: P12-Ichikawa; assay: cell viability relative to DMSO control; higher = less cytotoxic; conditions: RPMI 5 mM glucose + 10% FBS; 48 h; 0.00702 µM
Quantity name: cell viability (%)

Molecule | Quantity name | Measured
COc1ccc(-c2c(-c3ccc(O)cc3O)n[nH]c2C)cc1 | cell viability | 105
Cc1ccc(F)c(NC(=O)Nc2ccc(-c3cccc4[nH]nc(N)c34)cc2)c1 | cell viability | 113
CN1C(=O)COc2c(C(=O)NC3CN4CCC3CC4)cc(Cl)cc21 (centres undefined) | cell viability | 110
CN[C@@H](C)C(=O)N[C@H]1CCCC[C@H]2CC[C@@H](C(=O)N[C@@H](c3ccccc3)c3cn(CCCCc4ccc(CCCCn5cc([C@@H](NC(=O)[C@@H]6CC[C@@H]7CCCC[C@H](NC(=O)[C@H](C)NC)C(=O)N76)c6ccccc6)nn5)cc4)nn3)N2C1=O | cell viability | 92
